# System: Sodium channel protein type 5 subunit alpha (Cavia porcellus)
# ASSAY_TEXT: Inactivation process of guinea pig cardiac Na channels expressed in xenopus oocytes was determined by measuring increase in current integral in presence of compound versus control at 10 uM
# SETTINGS: oocyte
Decision: Change >= 400% yields True, all other cases yield False.

Study these solved cases before continuing.
[
  {
    "COMPOUND": "O[C@@H](CN1CCN(C(c2ccccc2)c2ccccc2)CC1)Cn1cnc(-c2ccccc2)c2ncnc1-2",
    "CLASS_ASSIGNMENT": "False"
  },
  {
    "COMPOUND": "OC(COc1cccc2[nH]ccc12)CN1CCN(C(c2ccccc2)c2ccccc2)CC1 (centres undefined)",
    "CLASS_ASSIGNMENT": "False"
  },
  {
    "COMPOUND": "OC(CN1CCN(C(c2ccccc2)c2ccccc2)CC1)Cn1cnc2c(-n3cccn3)ncnc21 (centres undefined)",
    "CLASS_ASSIGNMENT": "False"
  },
  {
    "COMPOUND": "OC(CN1CCN(C(c2ccccc2)c2ccccc2)CC1)Cn1ccc2ccccc21 (centres undefined)",
    "CLASS_ASSIGNMENT": "False"
  },
  {
    "COMPOUND": "OC(CN1CCN(C(c2ccccc2)c2ccccc2)CC1)Cn1cnc2c(C#Cc3ccccc3)ncnc21 (centres undefined)",
    "CLASS_ASSIGNMENT": "False"
  },
  {
    "COMPOUND": "OC(CN1CCN(C(c2ccccc2)c2ccccc2)CC1)Cn1cnc2c(-n3cncn3)ncnc21 (centres undefined)",
    "CLASS_ASSIGNMENT": "True"
  },
  {
    "COMPOUND": "NC(CN1CCN(C(c2ccccc2)c2ccccc2)CC1)Cn1cnc2c(-n3cccc3)ncnc21 (centres undefined)",
    "CLASS_ASSIGNMENT": "True"
  }
]

# input for lookup
Tell me whether Change is at least 400% here: `O[C@@H](CN1CCN(C(c2ccccc2)c2ccccc2)CC1)Cn1cnc2c(-c3ccccc3)ncnc21`
True

====

# ASSAY_TEXT: Effective concentration against Xenopus oocytes expressing human heart Na channel
# Format: functional, cell-based
# SETTINGS: oocyte
MEASURED_ATTRIBUTE: EC50 (µM)
Write down the numeric answer in µM and omit the unit.

Known results for compounds:
[
  {
    "COMPOUND": "O[C@@H](CN1CCN(C(c2ccccc2)c2ccccc2)CC1)Cn1cnc(-c2ccncc2)c2ncnc1-2",
    "EC50 [µM]": 2.1
  },
  {
    "COMPOUND": "O[C@@H](CN1CCN(C(c2ccccc2)c2ccccc2)CC1)Cn1cnc2c(-n3ccnc3)ncnc21",
    "EC50 [µM]": 1.25
  },
  {
    "COMPOUND": "O[C@@H](CN1CCN(C(c2ccccc2)c2ccccc2)CC1)Cn1cnc(-n2cccn2)c2ncnc1-2",
    "EC50 [µM]": 0.9
  },
  {
    "COMPOUND": "O[C@@H](CN1CCN(C(c2ccccc2)c2ccccc2)CC1)Cn1cnc(-c2cccs2)c2ncnc1-2",
    "EC50 [µM]": 0.433
  }
]

Need EC50 of `O[C@@H](CN1CCN(C(c2ccccc2)c2ccccc2)CC1)Cn1cnc2c(-n3cccn3)ncnc21` , thanks.
0.9

Also check `O=Cc1ccn(-c2ncnc3c2ncn3C[C@@H](O)CN2CCN(C(c3ccccc3)c3ccccc3)CC2)c1`
7.26

Also check N#Cc1cc2c(OCC(O)CN3CCN(C(c4ccccc4)c4ccccc4)CC3)cccc2[nH]1 (stereo not drawn)
2.31

Also check `O[C@@H](CN1CCN(C(c2ccccc2)c2ccccc2)CC1)Cn1cnc(-n2cccc2)c2ncnc1-2`
0.29

====

Change overview
# Test system: Sodium channel protein type 5 subunit alpha (Cavia porcellus)
# ASSAY_TEXT: Inactivation process of guinea pig cardiac Na channels expressed in xenopus oocytes was determined by measuring increase in current integral in presence of compound versus control at 10 uM
# SETTINGS: oocyte
Write down the numeric answer in % and omit the unit.

Known results for compounds:
[
  {
    "COMPOUND": "Cc1cn(-c2ncnc3c2ncn3CC(O)CN2CCN(C(c3ccccc3)c3ccccc3)CC2)cn1 (centres undefined)",
    "Change (%)": 126
  },
  {
    "COMPOUND": "N#Cc1cc2c(OCC(O)CN3CCN(C(c4ccccc4)c4ccccc4)CC3)cccc2[nH]1 (centres undefined)",
    "Change (%)": 239
  },
  {
    "COMPOUND": "OC(CN1CCC(C(O)(c2ccccc2)c2ccccc2)CC1)Cn1cnc2c(-n3cccc3)ncnc21 (centres undefined)",
    "Change (%)": -10
  }
]

Need Change of OC(CN1CCN(C(c2ccccc2)c2ccccc2)CC1)Cn1cnc2c(Cc3ccccc3)ncnc21 (centres undefined) , thanks.
-100

Also check CC(c1ccccc1)N1CCN(CC(O)Cn2cnc3c(-n4cccc4)ncnc32)CC1 (centres undefined)
-32

Also check OC(CN1CCN(C(c2ccccc2)c2ccccc2)CC1)Cn1cnc2c(N3CCCCC3)ncnc21 (centres undefined)
26

Also check OC(CN1CCN(Cc2ccccc2)CC1)Cn1cnc2c(-n3cccc3)ncnc21 (centres undefined)
182

Also check `O/N=C(/CN1CCN(C(c2ccccc2)c2ccccc2)CC1)Cn1cnc2c(-n3cccc3)ncnc21`
-6

Also check OC(CN1CCN(C(c2ccccc2)c2ccccc2)CC1)Cn1cnc2ccccc21 (centres undefined)
42

====

# Tested on: Sodium channel protein type 5 subunit alpha (Cavia porcellus)
# ASSAY_TEXT: Inactivation process of guinea pig cardiac Na channels expressed in xenopus oocytes was determined by measuring increase in current integral in presence of compound versus control at 10 uM
# SETTINGS: oocyte
Decision: Change >= 40% yields fulfilled, all other cases yield not fulfilled.

Study these solved cases before continuing.
[
  {
    "MOLECULE": "Cc1cc2c(n1-c1ncnc3c1ncn3CC(O)CN1CCN(C(c3ccccc3)c3ccccc3)CC1)CCCC2 (centres undefined)",
    "CLASS_ASSIGNMENT": "not fulfilled"
  },
  {
    "MOLECULE": "OC(CN1CCC(=C(c2ccccc2)c2ccccc2)CC1)Cn1cnc2c(-n3cccc3)ncnc21 (centres undefined)",
    "CLASS_ASSIGNMENT": "fulfilled"
  },
  {
    "MOLECULE": "OC(CN1CCCN(C(c2ccccc2)c2ccccc2)CC1)Cn1cnc2c(-n3cccc3)ncnc21 (centres undefined)",
    "CLASS_ASSIGNMENT": "not fulfilled"
  },
  {
    "MOLECULE": "O[C@@H](CN1CCN(C(c2ccccc2)c2ccccc2)CC1)Cn1cnc(-n2cccc2)c2ncnc1-2",
    "CLASS_ASSIGNMENT": "fulfilled"
  },
  {
    "MOLECULE": "O=C(C(c1ccccc1)c1ccccc1)N1CCN(CC(O)Cn2cnc3c(-n4cccc4)ncnc32)CC1 (centres undefined)",
    "CLASS_ASSIGNMENT": "not fulfilled"
  }
]

Tell me whether Change is at least 40% here: OC(CN1CCN(C(c2ccccc2)c2ccccc2)CC1)Cn1cnc2c(-n3cccc3)ncnc21 (centres undefined)
fulfilled

Also check CC1CN(CC(O)Cn2cnc3c(-n4cccc4)ncnc32)CCN1C(c1ccccc1)c1ccccc1 (centres undefined)
fulfilled

Also check Nc1ncnc2c1ncn2CC(O)CN1CCN(C(c2ccccc2)c2ccccc2)CC1 (centres undefined)
fulfilled

Also check OC(CN1CCN(C(c2ccccc2)c2ccncc2)CC1)Cn1cnc2c(-n3cccc3)ncnc21 (centres undefined)
fulfilled

====

# Test system: Sodium channel protein type 5 subunit alpha (Cavia porcellus)
# ASSAY_TEXT: Inactivation process of guinea pig cardiac Na channels expressed in xenopus oocytes was determined by measuring increase in current integral in presence of compound versus control at 10 uM
# SETTINGS: oocyte
Change overview
Write down the numeric answer in % and omit the unit.

Known results for molecules:
[
  {
    "MOLECULE": "OC(CN1CCN(C(c2ccccc2)c2ccccc2)CC1)Cn1ccc2cccnc21 (stereo not given)",
    "MEASURED_ATTRIBUTE": "Change",
    "RECORDED_VALUE": -71
  },
  {
    "MOLECULE": "O=C(CN1CCN(C(c2ccccc2)c2ccccc2)CC1)Cn1cnc2c(-n3cccc3)ncnc21",
    "MEASURED_ATTRIBUTE": "Change",
    "RECORDED_VALUE": 9
  },
  {
    "MOLECULE": "Nc1ncnc2c1ncn2C[C@H](O)CN1CCN(C(c2ccccc2)c2ccccc2)CC1",
    "MEASURED_ATTRIBUTE": "Change",
    "RECORDED_VALUE": -43
  },
  {
    "MOLECULE": "C[C@](O)(CN1CCN(C(c2ccccc2)c2ccccc2)CC1)Cn1cnc2c(-n3cccc3)ncnc21",
    "MEASURED_ATTRIBUTE": "Change",
    "RECORDED_VALUE": 34
  }
]

Shifting focus to the molecule that follows.
I'm curious: which Change was measured for OC(CN1CCN(C(c2ccccc2)c2ccccc2)CC1)Cn1cnc2c(-c3ccccc3)ncnc21 (stereo not given) tested on Sodium channel protein type 5 subunit alpha (Cavia porcellus)?
151

Origin of values: ChEMBL document CHEMBL1128429
